Ref: patent US12503436B2

biological target: STING (Homo sapiens, UniProt Q86WV6, G230A/H232R/R293Q/R71H); experiment: STING reporter assay in THP1-Dual KO-IFNAR2 cells (2′3′cGAMP stimulation, luciferase reporter); settings: 15 μM 2′3′cGAMP stimulation, 24 h, read-out: Pharmaron, THP1_IFNAR2 STING 24 h Luci Normalized: GeoMean EC50
Sequence (Q86WV6 whole entry R71H/G230A/H232R/R293Q): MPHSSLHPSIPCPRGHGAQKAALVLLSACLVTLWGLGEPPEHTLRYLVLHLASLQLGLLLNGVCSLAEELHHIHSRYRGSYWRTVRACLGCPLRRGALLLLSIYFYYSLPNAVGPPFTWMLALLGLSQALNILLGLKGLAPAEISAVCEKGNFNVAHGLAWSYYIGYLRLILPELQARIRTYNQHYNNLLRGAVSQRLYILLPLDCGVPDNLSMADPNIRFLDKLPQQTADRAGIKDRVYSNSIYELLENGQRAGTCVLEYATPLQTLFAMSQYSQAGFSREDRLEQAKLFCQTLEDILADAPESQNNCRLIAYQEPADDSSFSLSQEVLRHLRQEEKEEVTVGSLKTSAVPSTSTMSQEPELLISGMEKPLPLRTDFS
value_type: EC50

QUERY: Would you kindly share the measured EC50 for O=C(Nc1c[nH]c2ccc(OCc3ccc(C(F)(F)F)cc3)cc12)C1CC1(F)F (stereo not drawn) ?
RESULT: 200 to 1000 nM

QUERY: Also, `C[C@]1(C(=O)Nc2c[nH]c3ccc(OCCc4ccc(C(F)(F)F)cc4)cc23)C[C@H](CO)C1` please.
RESULT: 40 to 200 nM

QUERY: Also, `CC1(C(=O)Nc2c[nH]c3ccc(OCC[C@@H]4C[C@@H]5CN(CC(F)(F)F)C[C@@H]5C4)cc23)CCOCC1` please.
RESULT: 40 to 200 nM

QUERY: Also, CC(=O)Nc1c[nH]c2ccc(OCCC3CCCN(CC(F)(F)F)C3)cc12 (single isomer, unassigned) [Compound 280] please.
RESULT: 1000 to 5000 nM

QUERY: Also, `CC(=O)Nc1c[nH]c2ncc(OCCc3ccc(C(F)(F)F)cc3)cc12` please.
RESULT: 1000 to 5000 nM

QUERY: Also, `O=C(Nc1c[nH]c2ccc(O[C@H]3C[C@H](c4ccc(C(F)(F)F)cc4)C3)cc12)C1COC1` please.
RESULT: 200 to 1000 nM

QUERY: Also, CC(=O)Nc1c[nH]c2ccc(OC3CCN(c4ccc(C(F)(F)F)cc4)C3)cc12 (stereo not drawn) please.
RESULT: 200 to 1000 nM

QUERY: Also, COC1CC(C(=O)Nc2c[nH]c3ccc(OCCc4ccc(C(F)(F)F)cc4)cc23)C1 (stereo not drawn) please.
RESULT: 40 to 200 nM

QUERY: Also, O=C(Nc1c[nH]c2ccc(OCc3ccc(C(F)(F)F)cc3)cc12)C1CC1(F)Cl (stereo not drawn) please.
RESULT: 200 to 1000 nM

QUERY: Also, CC(=O)Nc1c[nH]c2ccc(CCOC(C)(C)C3CCN(CC(F)(F)F)C3)cc12 (stereo not drawn) please.
RESULT: 5000 to 100000 nM

QUERY: Also, `CC1(C)CC(C(=O)Nc2c[nH]c3ccc(OCc4ccc(C(F)(F)F)cc4)cc23)C1` please.
RESULT: 200 to 1000 nM

QUERY: Also, `CC1(C(=O)Nc2c[nH]c3ccc(CCOc4ccc(C(F)(F)F)cc4)cc23)COC1` please.
RESULT: 40 to 200 nM

QUERY: Also, `CC1(C(=O)Nc2c[nH]c3ccc(O[C@H]4C[C@H](c5ccc(C(F)(F)F)cc5)C4)cc23)CC1` please.
RESULT: 40 to 200 nM

QUERY: Also, `CC(C)(C)C(=O)Nc1c[nH]c2ccc(O[C@H]3C[C@@H](c4ccc(C(F)(F)F)cc4)C3)cc12` please.
RESULT: 200 to 1000 nM

QUERY: Also, `CO[C@H]1C[C@@](C)(C(=O)Nc2c[nH]c3ccc(OCC[C@@H]4C[C@@H]5CN(CC(F)(F)F)C[C@@H]5C4)cc23)C1` please.
RESULT: 1000 to 5000 nM
